Test: Tmax in Beagle dog at 3 mg/kg, po
Type: ADME, organism-based, Canis lupus familiaris
Design: dose 3 mg/kg, route oral
Conditions: in vivo
OBSERVABLE: Tmax (h)
Just the number please, in h, no unit attached.

Please give measured Tmax of the following entry: "Cc1c(C(=O)N2CCOc3ccc(-c4ccc(N)nc4)cc3C2)ccc(S(C)(=O)=O)c1F"
1

----------
Test: Metabolic stability in rat liver microsomes after 30 mins
Type: ADME, Microsome
Conditions: read-out: Stability
OBSERVABLE: remaining at 0.5 h
Field: value (include unit after the number)

Return the recorded remaining at 0.5 h value; entry: "Cc1c(C(=O)N2CCOc3ccc(-c4ccc(N)nc4)cc3C2)ccc(S(C)(=O)=O)c1F"
78%

----------
Test: Plasma concentration in athymic mouse plasma xenografted with human PC3 cells at 100 mg/kg, po after 1 hr
Type: ADME, organism-based, PC-3
Set-up: dose 100 mg/kg, route oral
OBSERVABLE: concentration at 1 h (µM)
Give the value, in units of µM, as a plain number.

// fetch concentration at 1 h given entry "Cc1c(C(=O)N2CCOc3ccc(-c4ccc(N)nc4)cc3C2)ccc(S(C)(=O)=O)c1F"
32.6

----------
Experiment: Metabolic stability in mouse liver microsomes after 30 mins
Assay type: ADME, Microsome
Conditions: read-out: Stability
The reader will find reported remaining at 0.5 h values listed item by item below.
Please reply with the bare figure in % and do not write the unit itself.

Some molecules with recorded remaining at 0.5 h:
smiles_entry=Cc1cc(S(C)(=O)=O)ccc1C(=O)N1CCOc2ccc(-c3ccc4nc[nH]c4c3)cc2C1 observable="remaining at 0.5 h" measurement=51
smiles_entry=O=C(c1ccc(C(=O)C(F)(F)F)cc1)N1CCOc2ccc(-c3ccc4nc[nH]c4c3)cc2C1 observable="remaining at 0.5 h" measurement=49
smiles_entry=O=C(c1ccc(C(F)(F)F)cc1)N1CCOc2ccc(-c3ccc4nc[nH]c4c3)cc2C1 observable="remaining at 0.5 h" measurement=74

Tell us which remaining at 0.5 h value is on record for "CS(=O)(=O)c1ccc(C(=O)N2CCOc3ccc(-c4ccc(N)nc4)cc3C2)cc1"
100

Provide one value: measured remaining at 0.5 h of "Cc1c(C(=O)N2CCOc3ccc(-c4ccc5nc[nH]c5c4)cc3C2)ccc(S(C)(=O)=O)c1F"
94

Please list remaining at 0.5 h recorded for the molecule "CCS(=O)(=O)c1ccc(C(=O)N2CCOc3ccc(-c4ccc5nc[nH]c5c4)cc3C2)cc1"
72

Item "CS(=O)(=O)c1ccc(C(=O)N2CCOc3ccc(-c4ccc5nc[nH]c5c4)cc3C2)c(Br)c1" : provide remaining at 0.5 h
45

Provide remaining at 0.5 h value for the following molecule: "O=C(c1ccc(C(=O)C(F)(F)F)cc1)N1CCOc2ccc(-c3cn[nH]c3)cc2C1"
3

Tell me its remaining at 0.5 h given "CS(=O)(=O)c1ccc(C(=O)N2CCOc3ccc(-c4ccc5nc[nH]c5c4)cc3C2)cc1" as the entry.
82

Provide only the value of recorded remaining at 0.5 h for "NS(=O)(=O)c1ccc(C(=O)N2CCOc3ccc(-c4ccc5nc[nH]c5c4)cc3C2)cc1"
64

Complete the entry with remaining at 0.5 h for "O=C(c1ccc(C(=O)C(F)(F)F)cc1)N1CCOc2ccc(-c3ccc4cn[nH]c4c3)cc2C1"
60

----------
Experiment: Tmax in cynomolgus monkey at 3 mg/kg, po
Type: ADME, organism-based, Macaca fascicularis
Design: dose 3 mg/kg, route oral
Conditions: in vivo
OBSERVABLE: Tmax
Give the number first and the unit second.

Give the value of Tmax reported for the following: "Cc1c(C(=O)N2CCOc3ccc(-c4ccc(N)nc4)cc3C2)ccc(S(C)(=O)=O)c1F"
2 h

----------
Experiment: Metabolic stability in dog liver microsomes after 30 mins
Assay type: ADME, Canis lupus familiaris, Microsome
Conditions: read-out: Stability
OBSERVABLE: remaining at 0.5 h (%)
Give a bare numeral; the unit % is implied.

Identify measured remaining at 0.5 h associated with "Cc1c(C(=O)N2CCOc3ccc(-c4ccc(N)nc4)cc3C2)ccc(S(C)(=O)=O)c1F"
82

----------
Experiment: Plasma protein binding in dog at 5 uM
Assay type: ADME, cell-free, Canis lupus familiaris
Conditions: read-out: PPB (converted)
OBSERVABLE: fraction unbound at 5 µM

Item "Cc1c(C(=O)N2CCOc3ccc(-c4ccc(N)nc4)cc3C2)ccc(S(C)(=O)=O)c1F" : provide fraction unbound at 5 µM
0.11

----------
Assay: Drug uptake in tumor of athymic mouse xenografted with human PC3 cells at 100 mg/kg, po after 16hrs
Format: ADME, organism-based, Neoplasm, PC-3
Design: dose 100 mg/kg, route oral
Settings: read-out: Drug uptake
OBSERVABLE: concentration at 16 h (µM)
Express the result in µM but write the number alone.

Look up and state reported concentration at 16 h for "Cc1c(C(=O)N2CCOc3ccc(-c4ccc(N)nc4)cc3C2)ccc(S(C)(=O)=O)c1F"
7.34

----------
Experiment: Cmax in athymic nude mouse at 10 mg/kg, po
Format: ADME, organism-based
Design: dose 10 mg/kg, route oral
Settings: in vivo
OBSERVABLE: Cmax (nM)
Report only the number, with the unit nM understood.

Give a short answer stating reported Cmax for "Cc1c(C(=O)N2CCOc3ccc(-c4ccc(N)nc4)cc3C2)ccc(S(C)(=O)=O)c1F" .
1300

----------
Experiment: Drug uptake in tumor of athymic mouse xenografted with human MCF7 cells at 100 mg/kg, po after 16hrs
Format: ADME, organism-based, Neoplasm
Design: dose 100 mg/kg, route oral
Details: read-out: Drug uptake
OBSERVABLE: concentration at 16 h (nM)
Supply the numeric figure in nM, leaving out any unit text.

Specify concentration at 16 h for "Cc1c(C(=O)N2CCOc3ccc(-c4ccc(N)nc4)cc3C2)ccc(S(C)(=O)=O)c1F" and stop.
2740

----------
Assay: Clearance in CD rat at 3 mg/kg, iv
Type: ADME, organism-based
Design: dose 3 mg/kg, route intravenous
Conditions: in vivo
OBSERVABLE: clearance (mL/min/kg)
Could you give me the number in mL/min/kg? Just the number is fine.

For the molecule "Cc1c(C(=O)N2CCOc3ccc(-c4ccc(N)nc4)cc3C2)ccc(S(C)(=O)=O)c1F" , report clearance.
21.2

----------
Test: Volume of distribution at steady state in cynomolgus monkey at 3 mg/kg, iv
Format: ADME, organism-based, Macaca fascicularis
Set-up: dose 3 mg/kg, route intravenous
Settings: in vivo, read-out: Vdss
OBSERVABLE: Vd (L/kg)
# value in L/kg; strip the unit string

Please supply the value of reported Vd for the item "Cc1c(C(=O)N2CCOc3ccc(-c4ccc(N)nc4)cc3C2)ccc(S(C)(=O)=O)c1F"
6.42

----------
Measured INH of individual entries
Molecular target: UniProt:P08684
Sequence (P08684 whole entry): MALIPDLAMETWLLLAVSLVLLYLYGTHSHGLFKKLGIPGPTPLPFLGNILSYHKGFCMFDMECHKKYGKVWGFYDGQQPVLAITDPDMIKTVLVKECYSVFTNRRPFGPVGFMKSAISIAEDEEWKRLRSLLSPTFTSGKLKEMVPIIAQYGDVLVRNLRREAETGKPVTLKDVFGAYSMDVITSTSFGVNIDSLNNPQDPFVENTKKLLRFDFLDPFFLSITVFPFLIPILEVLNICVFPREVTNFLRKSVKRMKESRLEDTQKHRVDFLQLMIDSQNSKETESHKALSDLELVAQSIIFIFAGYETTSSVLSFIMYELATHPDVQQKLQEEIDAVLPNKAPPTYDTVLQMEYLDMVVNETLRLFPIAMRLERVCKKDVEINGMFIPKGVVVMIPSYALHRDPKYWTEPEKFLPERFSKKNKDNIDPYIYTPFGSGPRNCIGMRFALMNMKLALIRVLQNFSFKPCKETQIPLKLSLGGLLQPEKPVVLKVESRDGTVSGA
Test: Inhibition of CYP3A4 (unknown origin)
Assay type: ADME
I only need the number, in µM, no unit after it.

Recorded INH, per entry:
smiles_entry=CS(=O)(=O)c1ccc(C(=O)N2CCOc3ccc(-c4ccc5nc[nH]c5c4)cc3C2)c(Br)c1 observable=INH endpoint_unit=µM measurement=3
smiles_entry=NS(=O)(=O)c1ccc(C(=O)N2CCOc3ccc(-c4ccc5nc[nH]c5c4)cc3C2)cc1 observable=INH endpoint_unit=µM measurement=6.3

Answer with reported INH of "Cc1c(C(=O)N2CCOc3ccc(-c4ccc5nc[nH]c5c4)cc3C2)ccc(S(C)(=O)=O)c1F"
3.4

Please list INH recorded for the molecule "O=C(c1ccc(C(=O)C(F)(F)F)cc1)N1CCOc2ccc(-c3ccc4nc[nH]c4c3)cc2C1"
2.3

Complete the entry with INH for "Cc1c(C(=O)N2CCOc3ccc(-c4ccc(N)nc4)cc3C2)ccc(S(C)(=O)=O)c1F"
24.6

----------
Molecular target: Phosphatidylinositol 4,5-bisphosphate 3-kinase catalytic subunit alpha isoform (Homo sapiens)
Sequence (P42336 whole entry, canonical isoform): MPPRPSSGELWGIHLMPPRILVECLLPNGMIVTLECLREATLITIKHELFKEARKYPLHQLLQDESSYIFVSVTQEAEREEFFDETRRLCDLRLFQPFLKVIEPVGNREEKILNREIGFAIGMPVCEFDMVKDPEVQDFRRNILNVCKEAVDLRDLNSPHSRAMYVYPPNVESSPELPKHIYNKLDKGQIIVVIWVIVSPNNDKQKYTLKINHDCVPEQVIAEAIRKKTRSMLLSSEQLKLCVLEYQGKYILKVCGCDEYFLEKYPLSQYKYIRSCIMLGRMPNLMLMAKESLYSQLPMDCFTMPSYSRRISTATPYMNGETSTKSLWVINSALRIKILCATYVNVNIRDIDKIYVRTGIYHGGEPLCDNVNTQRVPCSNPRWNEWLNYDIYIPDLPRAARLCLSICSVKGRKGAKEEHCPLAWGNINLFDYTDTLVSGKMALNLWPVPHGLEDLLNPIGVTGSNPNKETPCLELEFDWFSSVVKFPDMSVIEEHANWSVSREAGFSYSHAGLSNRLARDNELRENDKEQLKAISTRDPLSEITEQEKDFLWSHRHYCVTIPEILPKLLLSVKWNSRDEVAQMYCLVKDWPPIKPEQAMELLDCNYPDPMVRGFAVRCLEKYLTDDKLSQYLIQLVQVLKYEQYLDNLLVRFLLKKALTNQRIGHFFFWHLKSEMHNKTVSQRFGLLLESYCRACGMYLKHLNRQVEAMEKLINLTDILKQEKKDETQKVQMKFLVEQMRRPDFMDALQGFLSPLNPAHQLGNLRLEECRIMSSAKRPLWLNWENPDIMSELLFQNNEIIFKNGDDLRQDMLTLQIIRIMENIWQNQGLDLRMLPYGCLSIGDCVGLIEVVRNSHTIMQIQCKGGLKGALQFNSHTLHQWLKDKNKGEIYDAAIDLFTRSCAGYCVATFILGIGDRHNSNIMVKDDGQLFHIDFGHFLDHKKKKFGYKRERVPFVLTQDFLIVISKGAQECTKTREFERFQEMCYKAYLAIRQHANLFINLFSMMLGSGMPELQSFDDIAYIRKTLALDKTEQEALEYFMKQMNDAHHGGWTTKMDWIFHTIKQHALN
Assay: Inhibition of PI3Kalpha (unknown origin) using PIP2 as substrate after 2 hrs by luminescence assay
Below: a set of entries, each annotated with reported pIC50.
Reminder that pIC50 is minus the log10 of a molar concentration.

Known results for molecules:
smiles_entry=O=C(c1ccccc1)N1CCOc2ccc(-c3cnc4ccccc4c3)cc2C1 measurement=5.50
smiles_entry=Cc1c(C(=O)N2CCOc3ccc(-c4ccc5nc[nH]c5c4)cc3C2)ccc(S(C)(=O)=O)c1F measurement=5.63

// switching to the query molecule
Please list pIC50 recorded for the molecule "CS(=O)(=O)c1ccc(C(=O)N2CCOc3ccc(-c4ccc5nc[nH]c5c4)cc3C2)cc1"
6.17

----------
Experiment: Plasma concentration in athymic mouse plasma xenografted with human PC3 cells at 100 mg/kg, po after 4 hrs
Format: ADME, organism-based, PC-3
Parameters: dose 100 mg/kg, route oral
OBSERVABLE: concentration at 4 h

Tell me measured concentration at 4 h for "Cc1c(C(=O)N2CCOc3ccc(-c4ccc(N)nc4)cc3C2)ccc(S(C)(=O)=O)c1F" please.
21.3 µM

----------
Assay: AUC (0 to infinity) in Beagle dog at 3 mg/kg, po
Format: ADME, organism-based, Canis lupus familiaris
Set-up: time infinity, dose 3 mg/kg, route oral
Conditions: plasma
OBSERVABLE: AUC(0-inf) (µM·h)
Use µM·h as the unit, but write only the number.

Specify AUC(0-inf) for "Cc1c(C(=O)N2CCOc3ccc(-c4ccc(N)nc4)cc3C2)ccc(S(C)(=O)=O)c1F" and stop.
7.66

src = ChEMBL document CHEMBL2331117
